- System: HepG2
- Measurement Protocol: cytotoxicity call (relative viability < 0.9)
- Cond: 10 µM
Hit rate of the full screen: of about 39,000 compounds, about 3,300 (8.5%) were called active. The full list was thinned out, with actives kept by preference.
Possible outcomes: 1.0 (active), 0.0 (inactive)

>  <Given Smiles>
C[C@H](CO)N1C[C@H](C)[C@H](CN(C)Cc2ccc(C(=O)Nc3ccccc3N)cc2)Oc2c(NC(=O)c3nc4ccccc4s3)cccc2C1=O

>  <Category Label>
0.0

$$$$
>  <Given Smiles>
C[C@H]1CCCCO[C@@H](CN(C)C(=O)Nc2ccc(C(F)(F)F)cc2)[C@@H](C)CN([C@@H](C)CO)C(=O)c2cc(NC(=O)Nc3ccc(C(F)(F)F)cc3)ccc2O1

>  <Category Label>
0.0

$$$$
>  <Given Smiles>
C[C@@H]1CN([C@@H](C)CO)C(=O)c2cccc(NC(=O)c3nc4ccccc4s3)c2O[C@@H]1CN(C)Cc1ccc(C(=O)Nc2ccccc2N)cc1

>  <Category Label>
1.0

$$$$
>  <Given Smiles>
CC(C)NC(=O)N(C)C[C@H]1OCCCC[C@@H](C)Oc2ccc(NC(=O)Nc3ccc(C(F)(F)F)cc3)cc2C(=O)N([C@@H](C)CO)C[C@H]1C

>  <Category Label>
0.0

$$$$
>  <Given Smiles>
C[C@@H]1CCCCO[C@@H](CN(C)S(=O)(=O)c2ccccc2)[C@@H](C)CN([C@H](C)CO)C(=O)c2cc(NC(=O)Nc3ccc(C(F)(F)F)cc3)ccc2O1

>  <Category Label>
0.0

$$$$
>  <Given Smiles>
C[C@H]1CN([C@@H](C)CO)C(=O)c2cccc(NC(=O)c3nc4ccccc4s3)c2O[C@@H]1CN(C)Cc1ccc(C(=O)Nc2ccccc2N)cc1

>  <Category Label>
0.0

$$$$
>  <Given Smiles>
CC(C)NC(=O)N(C)C[C@H]1Oc2ccc(NC(=O)CCC(F)(F)F)cc2C(=O)N([C@@H](C)CO)C[C@H]1C

>  <Category Label>
0.0

$$$$
>  <Given Smiles>
O=C(O)COc1nn(Cc2ccccc2)c2ccccc12

>  <Category Label>
0.0

$$$$
>  <Given Smiles>
COC(=O)C[C@@H]1CC[C@H]2[C@H](COc3ccc(NS(=O)(=O)c4ccccc4Cl)cc3C(=O)N2C)O1

>  <Category Label>
0.0

$$$$
>  <Given Smiles>
CCCCOC(=O)c1ccc(O)cc1

>  <Category Label>
0.0

$$$$
>  <Given Smiles>
C[C@H]1CCCCO[C@@H](CN(C)S(=O)(=O)c2ccccc2)[C@@H](C)CN([C@@H](C)CO)C(=O)c2cc(NC(=O)Nc3ccc(C(F)(F)F)cc3)ccc2O1

>  <Category Label>
1.0

$$$$
>  <Given Smiles>
CN(C)CCCOc1nn(Cc2ccccc2)c2ccccc12.Cl

>  <Category Label>
1.0

$$$$
>  <Given Smiles>
C[C@H](CO)N1C[C@H](C)[C@H](CN(C)S(=O)(=O)c2ccccc2)OCCCC[C@H](C)Oc2ccc(NC(=O)Nc3ccc(C(F)(F)F)cc3)cc2C1=O

>  <Category Label>
0.0

$$$$
>  <Given Smiles>
CC(C)NC(=O)N(C)C[C@@H]1OCCCC[C@H](C)Oc2ccc(NC(=O)Nc3ccc(C(F)(F)F)cc3)cc2C(=O)N([C@@H](C)CO)C[C@@H]1C

>  <Category Label>
1.0

$$$$
>  <Given Smiles>
C[C@@H]1CN([C@@H](C)CO)C(=O)c2cc(NC(=O)Nc3ccc(C(F)(F)F)cc3)ccc2O[C@@H](C)CCCCO[C@@H]1CN(C)S(=O)(=O)c1ccccc1

>  <Category Label>
0.0

$$$$
>  <Given Smiles>
Cc1noc(C)c1S(=O)(=O)Nc1cccc2c1O[C@@H](CN(C)Cc1ccccc1)[C@@H](C)CN([C@H](C)CO)C2=O

>  <Category Label>
0.0

$$$$
>  <Given Smiles>
C[C@@H]1CCCCO[C@H](CN(C)C(=O)Nc2ccc(C(F)(F)F)cc2)[C@H](C)CN([C@H](C)CO)C(=O)c2cc(NC(=O)Nc3ccc(C(F)(F)F)cc3)ccc2O1

>  <Category Label>
0.0

$$$$
>  <Given Smiles>
COc1cccc(C#Cc2ccc3c(c2)O[C@@H](CN(C)C(C)=O)[C@H](C)CN([C@@H](C)CO)S3(=O)=O)c1

>  <Category Label>
0.0

$$$$
>  <Given Smiles>
C[C@@H]1CCCCO[C@H](CN(C)S(=O)(=O)c2ccccc2)[C@@H](C)CN([C@H](C)CO)C(=O)c2cc(NC(=O)Nc3ccc(C(F)(F)F)cc3)ccc2O1

>  <Category Label>
1.0

$$$$
>  <Given Smiles>
C[C@@H]1CN([C@@H](C)CO)C(=O)c2cc(NC(=O)Nc3ccc(C(F)(F)F)cc3)ccc2O[C@@H](C)CCCCO[C@H]1CN(C)S(=O)(=O)c1ccccc1

>  <Category Label>
0.0

$$$$
>  <Given Smiles>
C[C@@H]1CCCCO[C@H](CN(C)C(=O)Nc2ccc(C(F)(F)F)cc2)[C@@H](C)CN([C@@H](C)CO)C(=O)c2cc(NC(=O)Nc3ccc(C(F)(F)F)cc3)ccc2O1

>  <Category Label>
0.0

$$$$
>  <Given Smiles>
CCCCNc1ccc(C(=O)OCCOCCOCCOCCOCCOCCOCCOCCOCCOC)cc1

>  <Category Label>
0.0

$$$$
>  <Given Smiles>
C[C@H](CO)N1C[C@H](C)[C@H](CN(C)C(=O)Nc2ccc(C(F)(F)F)cc2)OCCCC[C@H](C)Oc2ccc(NC(=O)Nc3ccc(C(F)(F)F)cc3)cc2C1=O

>  <Category Label>
0.0

$$$$
>  <Given Smiles>
C[C@@H]1CCCCO[C@H](CN(C)S(=O)(=O)c2ccccc2)[C@H](C)CN([C@@H](C)CO)C(=O)c2cc(NC(=O)Nc3ccc(C(F)(F)F)cc3)ccc2O1

>  <Category Label>
1.0

$$$$
>  <Given Smiles>
CCOc1ccc(Nc2nc3c(=O)nc[nH]c3n2[C@H]2O[C@@H](CO)[C@@H](O)[C@@H]2O)cc1

>  <Category Label>
0.0

$$$$
>  <Given Smiles>
Cc1noc(C)c1NC(=O)N(C)C[C@@H]1OCCCC[C@H](C)Oc2ccc(NC(=O)Nc3ccc(C(F)(F)F)cc3)cc2C(=O)N([C@@H](C)CO)C[C@@H]1C

>  <Category Label>
1.0

$$$$
>  <Given Smiles>
O=C(C[C@H]1C=C[C@@H](NC(=O)c2cccc(F)c2)[C@@H](CO)O1)NCCN1CCCC1

>  <Category Label>
0.0

$$$$

* * *

- System: HepG2
- Measurement Protocol: cytotoxicity call (relative viability < 0.9)
- Cond: 10 µM
Hit rate of the full screen: of about 39,000 compounds, about 3,300 (8.5%) were called active. The list comes from a sample in which actives are over-represented; it also holds close analogues and randomly drawn compounds.
Possible outcomes: true = active, false = inactive

>  <Given Smiles>
C[C@@H]1CN([C@H](C)CO)C(=O)c2cc(NC(=O)c3ccccc3)ccc2O[C@@H](C)CCCCO[C@H]1CN(C)Cc1ccccc1

>  <Category Label>
true

$$$$
>  <Given Smiles>
C[C@@H]1CCCCO[C@H](CN(C)Cc2ccc(C(F)(F)F)cc2)[C@H](C)CN([C@@H](C)CO)C(=O)c2cc(NC(=O)c3ccccc3)ccc2O1

>  <Category Label>
true

$$$$
>  <Given Smiles>
C[C@H](CO)N1C[C@H](C)[C@H](CN(C)Cc2ccc(C(F)(F)F)cc2)OCCCC[C@H](C)Oc2ccc(NC(=O)c3ccccc3)cc2C1=O

>  <Category Label>
false

$$$$
>  <Given Smiles>
C[C@@H]1CCCCO[C@@H](CN(C)Cc2ccc(C(F)(F)F)cc2)[C@H](C)CN([C@H](C)CO)C(=O)c2cc(NC(=O)c3ccccc3)ccc2O1

>  <Category Label>
false

$$$$
>  <Given Smiles>
C[C@@H]1CN([C@@H](C)CO)C(=O)c2cc(NC(=O)c3ccccc3)ccc2O[C@@H](C)CCCCO[C@H]1CN(C)Cc1ccccc1

>  <Category Label>
false

$$$$
>  <Given Smiles>
C[C@@H]1CCCCO[C@H](CN(C)Cc2ccc(C(F)(F)F)cc2)[C@@H](C)CN([C@H](C)CO)C(=O)c2cc(NC(=O)c3ccccc3)ccc2O1

>  <Category Label>
false

$$$$

* * *

- System: HepG2
- Measurement Protocol: cytotoxicity call (relative viability < 0.9)
- Cond: 10 µM
About 3,300 (8.5%) of roughly 39,000 compounds were called active. For the sample, actives were picked, then their nearest neighbours and some compounds at random.

>  <Given Smiles>
C[C@H](CO)N1C[C@H](C)[C@@H](CN(C)C(=O)c2cnccn2)Oc2ncc(/C=C/c3ccccc3)cc2C1=O

>  <cytotoxicity call>
inactive

$$$$
>  <Given Smiles>
C[C@H](CO)N1C[C@H](C)[C@@H](CN(C)C(=O)Nc2ccc(F)cc2)OCCCC[C@H](C)Oc2ccc(NC(=O)Nc3ccccc3)cc2C1=O

>  <cytotoxicity call>
inactive

$$$$
>  <Given Smiles>
CS(=O)(=O)Nc1ccc2c(c1)[C@H]1C[C@@H](CC(=O)NCc3ccc(-c4ccccc4)cc3)O[C@@H](CO)[C@H]1O2

>  <cytotoxicity call>
inactive

$$$$
>  <Given Smiles>
C[C@H](CO)N1C[C@H](C)[C@H](CN(C)Cc2ccc(-c3ccccc3)cc2)Oc2ccc(NS(=O)(=O)c3cccs3)cc2C1=O

>  <cytotoxicity call>
inactive

$$$$
